target of assay: MARK4 (Homo sapiens, UniProt Q96L34)
Construct: made in house
assay: Isothermal titration calorimetry
Assay type: binding
pKd: −log10 of the molar value.
quantity name: pKd

INSERT INTO results (compound, target_of_assay, quantity_name, measured_result) VALUES
  ('O=C(/C=C/c1ccc(O)c(O)c1)O[C@H](Cc1ccc(O)c(O)c1)C(=O)O [Rosmarinic acid]', 'MARK4 (Homo sapiens, UniProt Q96L34)', 'pKd', 6.64);

====

target of assay: MARK4 (Homo sapiens, UniProt Q96L34)
Construct: made in house
Sequence (Q96L34 1-752): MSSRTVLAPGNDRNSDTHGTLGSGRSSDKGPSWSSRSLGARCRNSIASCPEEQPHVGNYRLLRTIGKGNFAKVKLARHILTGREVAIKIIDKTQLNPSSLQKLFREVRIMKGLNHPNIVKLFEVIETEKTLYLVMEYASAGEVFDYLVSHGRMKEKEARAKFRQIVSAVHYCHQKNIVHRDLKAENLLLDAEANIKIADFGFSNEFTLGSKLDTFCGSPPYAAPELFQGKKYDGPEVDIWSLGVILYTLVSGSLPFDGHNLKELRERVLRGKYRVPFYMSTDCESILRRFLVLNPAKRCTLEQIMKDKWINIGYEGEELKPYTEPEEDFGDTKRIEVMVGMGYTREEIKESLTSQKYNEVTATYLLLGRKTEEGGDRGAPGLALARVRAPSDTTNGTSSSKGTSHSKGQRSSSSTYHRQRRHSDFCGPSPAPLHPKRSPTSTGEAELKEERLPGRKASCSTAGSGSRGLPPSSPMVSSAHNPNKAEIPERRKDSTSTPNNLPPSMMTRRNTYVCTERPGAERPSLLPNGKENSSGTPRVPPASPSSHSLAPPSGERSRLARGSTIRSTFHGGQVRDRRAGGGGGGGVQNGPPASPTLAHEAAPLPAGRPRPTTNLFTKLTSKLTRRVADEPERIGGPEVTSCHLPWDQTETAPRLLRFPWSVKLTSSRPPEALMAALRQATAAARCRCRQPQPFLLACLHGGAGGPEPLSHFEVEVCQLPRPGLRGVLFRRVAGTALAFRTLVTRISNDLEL
assay: Steady-state fluorescence quenching binding studies
experimental parameters: K (binding constant), 298 K; modified Stern-Volmer
quantity name: Kd (nM)

INSERT INTO results (smiles_str, quantity_name, measured_result) VALUES
  ('O=C(/C=C/c1ccc(O)c(O)c1)O[C@H](Cc1ccc(O)c(O)c1)C(=O)O', 'Kd', 500);

====

target of assay: MARK4 (Homo sapiens, UniProt Q96L34)
Construct: made in house
Sequence (Q96L34 1-752): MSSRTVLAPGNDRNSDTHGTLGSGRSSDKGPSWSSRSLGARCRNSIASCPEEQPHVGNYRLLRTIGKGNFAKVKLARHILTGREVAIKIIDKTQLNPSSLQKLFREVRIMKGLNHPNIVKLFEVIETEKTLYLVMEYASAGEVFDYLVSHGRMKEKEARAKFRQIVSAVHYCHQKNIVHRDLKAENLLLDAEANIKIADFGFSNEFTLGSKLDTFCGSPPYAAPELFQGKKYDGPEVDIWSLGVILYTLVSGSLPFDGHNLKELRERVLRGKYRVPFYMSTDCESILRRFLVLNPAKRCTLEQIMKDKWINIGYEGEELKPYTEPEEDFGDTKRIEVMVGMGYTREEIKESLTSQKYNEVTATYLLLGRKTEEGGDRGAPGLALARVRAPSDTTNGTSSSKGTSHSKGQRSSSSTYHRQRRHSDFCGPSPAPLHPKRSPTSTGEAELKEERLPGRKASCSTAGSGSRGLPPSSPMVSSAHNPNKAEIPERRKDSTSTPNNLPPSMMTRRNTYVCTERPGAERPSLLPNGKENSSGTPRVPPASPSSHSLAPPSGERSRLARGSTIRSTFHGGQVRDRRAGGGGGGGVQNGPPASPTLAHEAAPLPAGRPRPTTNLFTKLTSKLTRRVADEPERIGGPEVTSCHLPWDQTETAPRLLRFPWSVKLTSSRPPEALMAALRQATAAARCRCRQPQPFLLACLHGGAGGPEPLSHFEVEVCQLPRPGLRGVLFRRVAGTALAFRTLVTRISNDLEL
assay: Steady-state fluorescence quenching binding studies
experimental parameters: K (binding constant), 305 K; modified Stern-Volmer
quantity name: Kd (nM)

INSERT INTO assay_data (smiles_str, quantity_name, measured_result) VALUES
  ('O=C(/C=C/c1ccc(O)c(O)c1)O[C@H](Cc1ccc(O)c(O)c1)C(=O)O', 'Kd', 1430);

====

target of assay: MARK4 (Homo sapiens, UniProt Q96L34)
Construct: made in house
Sequence (Q96L34 1-752): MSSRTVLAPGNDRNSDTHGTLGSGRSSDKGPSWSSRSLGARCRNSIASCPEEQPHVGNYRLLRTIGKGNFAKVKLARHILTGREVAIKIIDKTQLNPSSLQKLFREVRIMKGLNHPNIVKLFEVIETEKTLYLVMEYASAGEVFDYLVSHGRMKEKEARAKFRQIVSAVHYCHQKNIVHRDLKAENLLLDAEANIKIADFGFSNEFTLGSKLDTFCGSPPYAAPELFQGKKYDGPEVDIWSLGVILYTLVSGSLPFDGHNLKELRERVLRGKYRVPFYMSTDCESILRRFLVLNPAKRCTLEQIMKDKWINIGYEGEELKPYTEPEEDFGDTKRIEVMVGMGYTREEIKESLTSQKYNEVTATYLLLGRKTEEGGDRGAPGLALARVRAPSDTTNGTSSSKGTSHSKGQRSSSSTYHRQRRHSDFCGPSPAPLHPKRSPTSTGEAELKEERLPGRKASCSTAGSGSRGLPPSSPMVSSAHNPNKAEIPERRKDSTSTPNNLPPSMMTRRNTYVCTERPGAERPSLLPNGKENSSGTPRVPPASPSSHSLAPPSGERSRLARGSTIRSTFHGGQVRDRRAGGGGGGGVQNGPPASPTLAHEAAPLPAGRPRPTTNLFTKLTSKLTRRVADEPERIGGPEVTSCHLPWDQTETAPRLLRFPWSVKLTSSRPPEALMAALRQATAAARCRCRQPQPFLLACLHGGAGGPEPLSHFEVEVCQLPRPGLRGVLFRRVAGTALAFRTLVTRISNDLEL
assay: Steady-state fluorescence quenching binding studies
experimental parameters: Binding constant (K), fluorescence quenching studies; temperature not given
pKd: −log10 of the molar value.
pKd for assorted compounds
quantity name: pKd

INSERT INTO assay_data (smiles_str, quantity_name, measured_result) VALUES
  ('COc1cc(C=O)ccc1O', 'pKd', 5.21),
  ('O=c1oc2c(O)c(O)cc3c(=O)oc4c(O)c(O)cc1c4c23', 'pKd', 2.00),
  ('O=C(/C=C/c1ccc(O)c(O)c1)O[C@H](Cc1ccc(O)c(O)c1)C(=O)O', 'pKd', 7.00),
  ('O=c1c(O)c(-c2ccc(O)c(O)c2)oc2cc(O)cc(O)c12', 'pKd', 2.01);
